- protocol description: protein stability index of a GFP-peptide fusion (GPS, HEK-293T) (PSI 1-6); higher = more stable;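 also: 24-mer peptide tiles fused after GFP, lentivirally expressed, FACS-sorted into six equal bins by GFP/DsRed ratio, decoded by Illumina sequencing, PSI is the read-weighted mean bin number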
- condition description: treatment: DMSO; c terminus: a fixed tail appended
List of protein stability index values.
measurement name: protein stability index

THLEGDTVQIICNTGYRLQNNENN [CFHR2] ... 3.79
ERTQLRLESLEDTHIMKGEDDALS [TRIB1] ... 5.27
TVAGIVGSSYGILQLFSSTLVGCW [MFSD9] ... 2.96
INYKLKSVAHLPWRMLTYKALNTF [CLPTM1] ... 2.44
IEREHLIQLRRWQETRGELQCRSP [TBC1D10A] ... 3.88
ARDRQPSDFKTDKEGGQAGSGQRV [ELOA2] ... 5.26
FYSTSSGLANGLQLLCPWAPLSGP [VENTX] ... 2.88
KERALSAPWLSLFPPEGNMEDKEM [ZNF263] ... 4.82
RYVSNWDFFIVGCEVIFCVFIFYY [PKD2L1] ... 3.07
FLCVLMSDWFNFHGHMCIAFELLG [CLK3] ... 3.2
MNGGMSLVAFVLLNECVGTAYWAL [SLC22A15] ... 3.91
DRDGHIKLTDFGFAKKLVDRTWTL [PRKX] ... 2.1
MGCTLSAEDKAAVERSKMIDRNLR [GNAI1] ... 4.64
PAADPPRYTFAPSVSLNKTARPFG [PDLIM7] ... 3.54
QMAEKNRRDAETWFLSKTEELNKE [KRT16] ... 5.02
NAMTCEGCKGFFRRSMKRKALFTC [VDR] ... 2.38
QLQELLHHCDDHLSLYQLSLERGT [RSAD1] ... 2.34
WLEDEPGRGAQGENERVRGLETGD [ZSWIM9] ... 5.49
FRLPGLSRREREPEPPAAVDFLEP [FCHO1] ... 4.24
KLILGMPTYGRSFTLASSSDTRVG [CHIT1] ... 2.42
VVIDKHPVRFFVHKRPHVDFFLEV [CTDNEP1] ... 2.22
LKNGSMGSPVNQQPKKNNVMARTR [FAM219A] ... 3.96
MASDTPESLMALCTDFCLRNLDGT [ZER1] ... 3.88
TDFKDKIVLDVGCGSGILSFFAAQ [CARM1] ... 2.3
KHPQPAPAVTPDPWGVQGGQESEV [PKD2L1] ... 5.24
LPNFAFSVPLAYFLLSQQTDLPEC [TCF25] ... 2.72
EERLERCMSIVTSMTAGVSEREAN [INTS3] ... 4.84
